System: Candida albicans
Condition: 20 µM
Description: Antifungal activity against Candida albicans ATCC 90028 (CO-ADD:FG_001); MIC in YNB media using NBS plates, by OD630
Entries with a potency or affinity are not part of this list.
Result type: Inhibition
Write your answer as a measured quantity: the number, then the unit.

CN1CCN(C2=Nc3cc(Cl)ccc3Nc3ccccc32)CC1 [CLOZAPINE] = 0.59%
CC(NC(C)(C)C)C(=O)c1cccc(Cl)c1.Cl (stereo not given) [BUPROPION HYDROCHLORIDE] = 4.99%

Give Inhibition for each listed item.
1. NC(=O)C[S+]([O-])C(c1ccccc1)c1ccccc1 (stereo not given) [MODAFINIL]
2. Cc1c(OCC(F)(F)F)ccnc1C[S+]([O-])c1nc2ccccc2[nH]1 (stereo not given) [LANSOPRAZOLE]
3. Cn1c(=O)c2nc[nH]c2n(C)c1=O.O [THEOPHYLLINE]

2.96%
9.31%
3.65%

###

Test system: Klebsiella pneumoniae
Condition: Concentration 20 uM; ASSAY_TEST Inhibition of Bacterial Growth; detection method Absorption (OD600); MEDIA CAMHB; plate type 384well; NBS; CORNING #3640; time 18 hr
Description: Antibacterial activity against Klebsiella pneumoniae MDR ATCC 70063 (CO-ADD:GN_003); MIC in CAMBH media using NBS plates, by OD(600)
Results with a measured potency or affinity are listed apart.
Returns t if the recorded Inhibition is greater than or equal to 10%, and f otherwise.

Nc1nc(F)nc2c1ncn2[C@@H]1O[C@H](CO)[C@@H](O)[C@@H]1O [FLUDARABINE] = f
CN/C(=N\CCSCc1nc[nH]c1C)NC#N [CIMETIDINE] = f

Dear colleague, could you confirm whether Cl.NCC(O)c1ccc(O)c(O)c1 (centres undefined) has Inhibition at or above 10%?
t

Dear colleague, could you confirm whether CNCCC(Oc1ccc(C(F)(F)F)cc1)c1ccccc1.Cl (centres undefined) [FLUOXETINE HYDROCHLORIDE] has Inhibition at or above 10%?
f

Dear colleague, could you confirm whether CN1C(=O)COc2c(C(=O)NC3CN4CCC3CC4)cc(Cl)cc21.Cl (centres undefined) has Inhibition at or above 10%?
t

Dear colleague, could you confirm whether NS(=O)(=O)c1cc(C2(O)NC(=O)c3ccccc32)ccc1Cl (centres undefined) [CHLORTHALIDONE] has Inhibition at or above 10%?
f

Dear colleague, could you confirm whether CC(O)(CS(=O)(=O)c1ccc(F)cc1)C(=O)Nc1ccc(C#N)c(C(F)(F)F)c1 (centres undefined) [BICALUTAMIDE] has Inhibition at or above 10%?
f

Dear colleague, could you confirm whether Cl.O.Oc1cc2c(cc1O)[C@H]1c3ccccc3CN[C@@H]1CC2 has Inhibition at or above 10%?
t

Dear colleague, could you confirm whether Nc1nc2ccc(Cl)cc2c2nc(-c3ccco3)nn12 [CGS-15943] has Inhibition at or above 10%?
t

Dear colleague, could you confirm whether COCCCOc1ccnc(C[S+]([O-])c2nc3ccccc3[nH]2)c1C (centres undefined) [RABEPRAZOLE] has Inhibition at or above 10%?
t

Dear colleague, could you confirm whether NC(=O)OCCCc1ccccc1 [PHENPROBAMATE] has Inhibition at or above 10%?
t

Dear colleague, could you confirm whether Cl.N=C(N)NC(=O)c1nc(Cl)c(N)nc1N.O.O [AMILORIDE HYDROCHLORIDE] has Inhibition at or above 10%?
t

Dear colleague, could you confirm whether O.O=P1(N(CCCl)CCCl)NCCCO1 (centres undefined) [CYCLOPHOSPHAMIDE] has Inhibition at or above 10%?
f

Dear colleague, could you confirm whether CC(=O)[C@H]1CC[C@H]2[C@@H]3CCC4=CC(=O)CC[C@]4(C)[C@H]3CC[C@]12C [PROGESTERONE] has Inhibition at or above 10%?
t

Dear colleague, could you confirm whether Br.CN1[C@@H]2CC(OC(=O)[C@H](CO)c3ccccc3)C[C@H]1[C@@H]1O[C@@H]12.O.O.O (some centres undefined) has Inhibition at or above 10%?
t

Dear colleague, could you confirm whether CS(=O)(=O)Nc1ccc(Cc2noc(-c3ccc4[nH]cc(CCN)c4c3)n2)cc1.O.O has Inhibition at or above 10%?
t

Dear colleague, could you confirm whether CN1CC[C@@]23CCCC[C@@H]2[C@@H]1Cc1ccc(O)cc13.O=C(O)C(O)C(O)C(=O)O has Inhibition at or above 10%?
t

Dear colleague, could you confirm whether CN1C(=O)CN=C(c2ccccc2)c2cc([N+](=O)[O-])ccc21 [NIMETAZEPAM] has Inhibition at or above 10%?
t

Dear colleague, could you confirm whether CCOC(=O)C1=C(COCCN)NC(C)=C(C(=O)OC)C1c1ccccc1Cl (centres undefined) [AMLODIPINE] has Inhibition at or above 10%?
f

###

Task for the reader: assign each of the following molecules its reported Inhibition.
Tested on: Cryptococcus neoformans
Condition: Concentration 20 uM; ASSAY_TEST Inhibition of Fungal Growth; detection method Resazurin; Absorption (OD600-OD570); plate type 384well; NBS; CORNING #3640
Description: Antifungal activity against Cryptococcus neoformans H99 ATCC 208821 (CO-ADD:FG_002); MIC in YNB media using NBS plates, by Resazurin OD(600-570)
Entries with a potency or affinity are not part of this list.
Write your answer as a measured quantity: the number, then the unit.

// solved cases for Inhibition follow
CCOC(=O)C1(c2ccccc2)CCN(CCC(C#N)(c2ccccc2)c2ccccc2)CC1.Cl [DIPHENOXYLATE HYDROCHLORIDE] = -16.2%
CN1CCN(C2=Nc3cc(Cl)ccc3Nc3ccccc32)CC1 = -5.79%
Cc1ccc(-c2nc3ccc(C)cn3c2CC(=O)N(C)C)cc1.Cc1ccc(-c2nc3ccc(C)cn3c2CC(=O)N(C)C)cc1.O=C(O)C(O)C(O)C(=O)O [ZOLPIDEM TARTRATE] = -1.23%

Give Inhibition for each listed item.
1. CC[N+](C)(C)c1cccc(O)c1.[Cl-] [EDROPHONIUM CHLORIDE]
2. CC(=O)OCC[N+](C)(C)C.[Cl-] [ACETYLCHOLINE CHLORIDE]
3. Cl.N=C(N)NC(=O)c1nc(Cl)c(N)nc1N.O.O [AMILORIDE HYDROCHLORIDE]

1: -6.73%; 2: -1.88%; 3: -6.3%

Give Inhibition for each listed item.
1. COCCCOc1ccnc(C[S+]([O-])c2nc3ccccc3[nH]2)c1C (stereo not drawn)
2. CN1CCN(C(=O)O[C@H]2c3nccnc3C(=O)N2c2ccc(Cl)cn2)CC1

1. -21.21%
2. 4.31%

###

Test system: Klebsiella pneumoniae
Condition: Concentration 20 uM; ASSAY_TEST Inhibition of Bacterial Growth; detection method Absorption (OD600); MEDIA CAMHB; plate type 384well; NBS; CORNING #3640; time 18 hr
Results with a measured potency or affinity are listed apart.
Task for the reader: assign each of the following compounds its reported Inhibition.
Give bare numbers, in %.

// solved cases for Inhibition follow
CCOC(=O)c1cncn1[C@H](C)c1ccccc1 [ETOMIDATE] = 12.64
CC(C)(C)NCC(O)c1cc(O)cc(O)c1.O=S(=O)(O)O (stereo not drawn) = 12.1

Give Inhibition for each listed item.
1. C[C@]12CC(C=O)=C(O)C[C@@H]1CC[C@@H]1[C@@H]2CC[C@@]2(C)[C@H]1CC[C@]2(C)O
2. Cl.Cl.OCCN1CCN(CCCN2c3ccccc3Sc3ccc(C(F)(F)F)cc32)CC1 [FLUPHENAZINE HYDROCHLORIDE]
3. CN(C)C(=O)C(CCN1CCC(O)(c2ccc(Cl)cc2)CC1)(c1ccccc1)c1ccccc1.Cl [LOPERAMIDE HYDROCHLORIDE]
4. C[C@]12CCC(=O)C[C@@H]1CC[C@@H]1[C@@H]2CC[C@@]2(C)[C@H]1CC[C@]2(C)O
5. CS(=O)(=O)O.O=C(O[C@@H]1C[C@@H]2C[C@H]3C[C@H](C1)N2CC3=O)c1c[nH]c2ccccc12
6. CNCC(O)c1ccc(O)cc1 (stereo not drawn)

6.07
7.98
11.49
3.85
8.46
-0.12

###

System: Cryptococcus neoformans
Condition: Concentration 20 uM; ASSAY_TEST Inhibition of Fungal Growth; detection method Resazurin; Absorption (OD600-OD570); plate type 384well; NBS; CORNING #3640
Entries with a potency or affinity are not part of this list.
Task for the reader: assign each of the following molecules its reported Inhibition.
One number for each entry, in %.

// solved cases for Inhibition follow
CCN(CC)CCOC(=O)C(O)(c1ccccc1)c1ccccc1.Cl = -7.17
C#CCN(C)[C@H](C)Cc1ccccc1.Cl [SELEGILINE HYDROCHLORIDE] = 1.77
C[C@]12CCC(=O)C=C1CC[C@@H]1[C@@H]2CC[C@@]2(C)[C@H]1CC[C@]2(C)O = 0
COc1ccc(C(CN(C)C)C2(O)CCCCC2)cc1.Cl (stereo not drawn) [VENLAFAXINE HYDROCHLORIDE] = -9.68
Cl.O=C1CC[C@@]2(O)[C@H]3Cc4ccc(O)c5c4[C@@]2(CCN3CC2CC2)[C@H]1O5 [NALTREXONE HYDROCHLORIDE] = 0.92
Br.CN1[C@@H]2CC(OC(=O)[C@H](CO)c3ccccc3)C[C@H]1[C@@H]1O[C@@H]12.O.O.O (stereo partly drawn) = -4.17

Give Inhibition for each listed item.
1. Cl.O.Oc1ccc2c3c1O[C@H]1c4[nH]c5ccccc5c4C[C@@]4(O)C(C2)N(CC2CC2)CC[C@]314
2. NC(=O)C[S+]([O-])C(c1ccccc1)c1ccccc1 (stereo not drawn)

-5.72
-0.59
